Biological target: 5-HT1D (Homo sapiens)
Sequence (P28221 whole entry, species assumed): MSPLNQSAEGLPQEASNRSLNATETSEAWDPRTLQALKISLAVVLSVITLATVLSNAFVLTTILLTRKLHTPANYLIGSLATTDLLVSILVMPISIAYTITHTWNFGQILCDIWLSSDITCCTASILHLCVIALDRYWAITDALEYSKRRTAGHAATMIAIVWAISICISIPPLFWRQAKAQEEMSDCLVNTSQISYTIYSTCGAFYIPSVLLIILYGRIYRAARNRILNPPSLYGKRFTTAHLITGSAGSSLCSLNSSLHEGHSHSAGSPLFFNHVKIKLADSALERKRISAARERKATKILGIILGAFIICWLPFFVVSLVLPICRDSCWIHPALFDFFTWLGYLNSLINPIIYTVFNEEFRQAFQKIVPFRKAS
Assay: Radioligand binding, 5-HT1D
pKi: −log10 of the molar value.
MEASURE_NAME: pKi

STRUCTURE_NOTATION: CCc1nc2cc(OCCCCN3CCC(c4cccc(Cl)c4Cl)CC3)ccc2s1
OBSERVED_VALUE: 6.09

STRUCTURE_NOTATION: Cc1ccc2cccc(N3CCN(CCCCOc4ccc5sc(C(C)C)nc5c4)CC3)c2n1
OBSERVED_VALUE: 7.03

STRUCTURE_NOTATION: CNc1nc2cc(OCCCCN3CCC(c4cccc(Cl)c4Cl)CC3)ccc2s1
OBSERVED_VALUE: 6.39

STRUCTURE_NOTATION: CC(C)c1nc2cc(OCCCCN3CCN(c4cccc5c4OCCO5)CC3)ccc2s1
OBSERVED_VALUE: 7.00

STRUCTURE_NOTATION: Cc1nc2cc(OCCCCN3CCN(c4cccc(Cl)c4Cl)CC3)ccc2s1
OBSERVED_VALUE: 6.49

====

Target: mouse D2Long (Mus musculus)
Sequence (P61168 whole entry): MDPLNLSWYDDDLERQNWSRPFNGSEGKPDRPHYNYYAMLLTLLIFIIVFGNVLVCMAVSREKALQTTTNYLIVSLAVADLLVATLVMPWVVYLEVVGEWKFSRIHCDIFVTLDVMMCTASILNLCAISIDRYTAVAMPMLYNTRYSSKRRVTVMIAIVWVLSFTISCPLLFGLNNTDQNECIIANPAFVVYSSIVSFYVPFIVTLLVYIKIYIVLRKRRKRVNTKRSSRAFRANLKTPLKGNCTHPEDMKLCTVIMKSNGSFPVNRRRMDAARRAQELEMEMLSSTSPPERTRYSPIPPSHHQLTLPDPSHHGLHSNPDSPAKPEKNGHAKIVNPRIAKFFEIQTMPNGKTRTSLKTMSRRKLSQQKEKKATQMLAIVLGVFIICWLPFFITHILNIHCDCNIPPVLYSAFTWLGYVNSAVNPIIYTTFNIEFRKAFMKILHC
Assay: BRET β-arrestin-2 recruitment assay with GRK2 co-expression
MEASURE_NAME: IC50

STRUCTURE_NOTATION: Cc1nc2cc(OCCCCN3CCN(c4cccc(Cl)c4Cl)CC3)ccc2s1
OBSERVED_VALUE: 18 nM

====

Target: 5-HT6 (Homo sapiens)
Sequence (P50406 whole entry, species assumed): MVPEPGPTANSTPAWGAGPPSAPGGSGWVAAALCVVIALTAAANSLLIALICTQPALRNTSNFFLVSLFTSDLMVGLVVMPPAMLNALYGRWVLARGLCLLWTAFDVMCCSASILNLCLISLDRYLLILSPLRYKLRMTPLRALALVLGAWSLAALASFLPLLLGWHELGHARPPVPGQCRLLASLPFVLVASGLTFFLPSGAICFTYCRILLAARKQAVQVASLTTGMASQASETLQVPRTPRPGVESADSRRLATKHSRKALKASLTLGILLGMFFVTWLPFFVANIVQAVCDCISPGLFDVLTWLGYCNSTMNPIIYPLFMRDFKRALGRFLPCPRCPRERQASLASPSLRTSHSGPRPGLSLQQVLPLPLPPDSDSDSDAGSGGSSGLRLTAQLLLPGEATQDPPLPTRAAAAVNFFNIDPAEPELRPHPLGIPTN
MEASURE_NAME: Ki

STRUCTURE_NOTATION: CNc1nc2cc(OCCCCN3CCC(c4cccc(Cl)c4Cl)CC3)ccc2s1
OBSERVED_VALUE: 410 nM

====

Target: 5-HT7 (Homo sapiens)
Sequence (P34969 whole entry, species assumed): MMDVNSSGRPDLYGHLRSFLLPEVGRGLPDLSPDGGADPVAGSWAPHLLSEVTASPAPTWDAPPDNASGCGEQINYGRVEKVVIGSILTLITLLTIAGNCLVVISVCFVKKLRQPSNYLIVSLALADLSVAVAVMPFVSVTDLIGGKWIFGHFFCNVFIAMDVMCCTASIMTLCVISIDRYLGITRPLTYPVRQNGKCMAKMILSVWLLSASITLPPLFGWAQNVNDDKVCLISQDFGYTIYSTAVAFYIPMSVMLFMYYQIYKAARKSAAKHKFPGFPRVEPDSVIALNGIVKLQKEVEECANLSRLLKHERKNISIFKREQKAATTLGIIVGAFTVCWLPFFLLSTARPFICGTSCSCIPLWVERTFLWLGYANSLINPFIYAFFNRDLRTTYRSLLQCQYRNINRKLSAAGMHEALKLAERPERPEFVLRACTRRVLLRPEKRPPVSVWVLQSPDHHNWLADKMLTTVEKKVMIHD
Assay: Radioligand binding, 5-HT7

STRUCTURE_NOTATION: Cc1ccc2cccc(N3CCN(CCCCOc4ccc5sc(C(C)C)nc5c4)CC3)c2n1
Ki, nM: 69
//
STRUCTURE_NOTATION: Cc1nc2cc(OCCCCN3CCN(c4cccc(Cl)c4Cl)CC3)ccc2s1
Ki, nM: 140
//
STRUCTURE_NOTATION: CC(C)c1nc2cc(OCCCCN3CCN(c4cccc5c4OCCO5)CC3)ccc2s1
Ki, nM: 31

====

Molecular target: D2L receptors (Homo sapiens, UniProt P14416)
Sequence (P14416 whole entry): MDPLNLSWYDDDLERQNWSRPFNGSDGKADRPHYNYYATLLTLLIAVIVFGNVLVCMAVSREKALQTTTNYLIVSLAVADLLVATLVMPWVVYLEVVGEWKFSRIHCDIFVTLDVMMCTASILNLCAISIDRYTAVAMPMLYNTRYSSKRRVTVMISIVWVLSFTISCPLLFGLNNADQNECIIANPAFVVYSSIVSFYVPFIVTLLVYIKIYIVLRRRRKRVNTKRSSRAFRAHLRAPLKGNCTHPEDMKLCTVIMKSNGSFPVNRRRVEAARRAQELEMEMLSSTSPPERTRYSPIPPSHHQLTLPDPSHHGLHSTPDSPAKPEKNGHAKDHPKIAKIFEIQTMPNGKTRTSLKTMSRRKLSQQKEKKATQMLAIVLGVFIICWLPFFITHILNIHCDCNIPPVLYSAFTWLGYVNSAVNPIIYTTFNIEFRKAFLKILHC
Experiment: D2R β-arrestin-2 recruitment Tango assay
Assay type: cell-based
Conditions: Tango assay
MEASURE_NAME: activity in β-arrestin recruitment (in words)

COMPOUND: CNc1nc2cc(OCCCCN3CCN(c4cccc5c4OCCO5)CC3)ccc2s1 [Compound 57]
OBSERVED_VALUE: inactive
//
COMPOUND: Cc1nc2cc(OCCCCN3CCCN(c4cccc(Cl)c4Cl)CC3)ccc2s1 [Compound 31]
OBSERVED_VALUE: inactive
//
COMPOUND: CCc1nc2cc(OCCCCN3CCN(c4cccc5c4OCCO5)CC3)ccc2s1 [Compound 52]
OBSERVED_VALUE: inactive

====

Target: hD2L receptors (Homo sapiens, UniProt P14416)
Sequence (P14416 whole entry): as the sequence (P14416 whole entry) above
Assay: D2R Gi/o-mediated cAMP inhibition assay
Assay type: cell-based
Conditions: HEK-293T, read-out: cAMP Emax (%)
MEASURE_NAME: Emax (%)

MOLECULE: COc1ccccc1N1CCN(CCCCOc2ccc3sc(C)nc3c2)CC1
OBSERVED_VALUE: 61

MOLECULE: Cc1nc2cc(OCCCCN3CCN(c4cccc5c4OCCN5)CC3)ccc2s1
OBSERVED_VALUE: 29

MOLECULE: Cc1nc2cc(OCCCCN3CCCN(c4cccc(Cl)c4Cl)CC3)ccc2s1
OBSERVED_VALUE: 22

MOLECULE: Cc1nc2ccc(OCCCCN3CCN(c4cccc(Cl)c4Cl)CC3)cc2s1
OBSERVED_VALUE: 42

MOLECULE: O=c1[nH]c2cc(OCCCCN3CCN(c4cccc(Cl)c4Cl)CC3)ccc2s1
OBSERVED_VALUE: 67

MOLECULE: Cc1nc2cc(OCCCCN3CCN(c4cccc5[nH]c(=O)oc45)CC3)ccc2s1
OBSERVED_VALUE: 90

MOLECULE: Cc1nc2cc(OCCCCN3CCN(c4cccc5c4OCCO5)CC3)ccc2s1
OBSERVED_VALUE: 50

MOLECULE: Cc1ccc2cccc(N3CCN(CCCCOc4ccc5sc(C)nc5c4)CC3)c2n1
OBSERVED_VALUE: 25

MOLECULE: Oc1c(CN2CCN(c3ccccn3)CC2)cc(Cl)c2cccnc12 [Compound 59, reference compound]
OBSERVED_VALUE: 63

MOLECULE: Cc1nc2cc(OCCCCN3CCC(c4cccc(Cl)c4Cl)CC3)ccc2s1
OBSERVED_VALUE: 66

====

Target: 5-HT3 (Homo sapiens, UniProt P46098)
Sequence (P46098 24-478): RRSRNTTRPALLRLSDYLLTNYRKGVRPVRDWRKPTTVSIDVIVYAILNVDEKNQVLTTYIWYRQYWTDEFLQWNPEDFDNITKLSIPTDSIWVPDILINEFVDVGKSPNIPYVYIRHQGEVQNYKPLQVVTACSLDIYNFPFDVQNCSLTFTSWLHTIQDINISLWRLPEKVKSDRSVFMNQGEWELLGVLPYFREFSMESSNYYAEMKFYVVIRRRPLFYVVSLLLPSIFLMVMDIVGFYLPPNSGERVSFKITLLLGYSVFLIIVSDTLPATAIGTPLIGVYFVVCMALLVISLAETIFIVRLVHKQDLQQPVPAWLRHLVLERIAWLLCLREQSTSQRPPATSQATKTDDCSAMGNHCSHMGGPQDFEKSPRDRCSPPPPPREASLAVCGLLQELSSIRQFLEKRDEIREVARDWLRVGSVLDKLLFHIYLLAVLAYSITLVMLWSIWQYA

MOLECULE: CC(C)c1nc2cc(OCCCCN3CCN(c4cccc5c4OCCO5)CC3)ccc2s1 [Compound 53]
Ki (nM): 2600
//
MOLECULE: CCc1nc2cc(OCCCCN3CCC(c4cccc(Cl)c4Cl)CC3)ccc2s1 [Compound 46]
Ki (nM): 1500

====

Molecular target: UniProtKB P47898
Sequence (P47898 whole entry, species assumed): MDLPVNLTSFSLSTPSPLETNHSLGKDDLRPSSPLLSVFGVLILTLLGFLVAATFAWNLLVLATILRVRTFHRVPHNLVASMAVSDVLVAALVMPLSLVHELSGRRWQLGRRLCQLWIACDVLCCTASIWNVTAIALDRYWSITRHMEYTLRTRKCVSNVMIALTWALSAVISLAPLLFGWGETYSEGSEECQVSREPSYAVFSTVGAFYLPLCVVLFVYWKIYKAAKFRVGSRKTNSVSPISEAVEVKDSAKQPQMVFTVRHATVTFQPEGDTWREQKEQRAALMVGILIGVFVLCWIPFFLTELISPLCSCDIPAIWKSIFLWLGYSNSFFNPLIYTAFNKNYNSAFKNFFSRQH
Measured Ki values are reported for all entries that follow.
MEASURE_NAME: Ki (µM)

COMPOUND: Cc1ccc2cccc(N3CCN(CCCCOc4ccc5sc(C(C)C)nc5c4)CC3)c2n1 [Compound 49]
MEASURE_NAME: Ki
OBSERVED_VALUE: 1.4
--
COMPOUND: CCc1nc2cc(OCCCCN3CCC(c4cccc(Cl)c4Cl)CC3)ccc2s1 [Compound 46]
MEASURE_NAME: Ki
OBSERVED_VALUE: 1.6

====

Molecular target: 5-HT2B (Homo sapiens, UniProt P41595)
Sequence (P41595 whole entry, species assumed): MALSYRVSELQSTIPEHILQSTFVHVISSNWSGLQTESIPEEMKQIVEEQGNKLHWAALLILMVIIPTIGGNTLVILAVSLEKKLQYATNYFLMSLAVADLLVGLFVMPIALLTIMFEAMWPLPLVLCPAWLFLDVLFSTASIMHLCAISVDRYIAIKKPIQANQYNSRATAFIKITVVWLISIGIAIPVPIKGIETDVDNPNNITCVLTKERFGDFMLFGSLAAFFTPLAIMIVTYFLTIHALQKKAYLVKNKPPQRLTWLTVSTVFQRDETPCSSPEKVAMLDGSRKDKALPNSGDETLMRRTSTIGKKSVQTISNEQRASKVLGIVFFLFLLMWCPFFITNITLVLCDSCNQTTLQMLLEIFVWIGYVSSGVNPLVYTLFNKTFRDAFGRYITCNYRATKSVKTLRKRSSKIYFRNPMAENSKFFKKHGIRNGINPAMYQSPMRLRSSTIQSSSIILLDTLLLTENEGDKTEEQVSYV
Assay: Radioligand binding, 5-HT2B
Conditions: Binding affinity Ki (nM), 5-HT2B
Measured Ki values are reported for all entries that follow.

STRUCTURE_NOTATION: CNc1nc2cc(OCCCCN3CCC(c4cccc(Cl)c4Cl)CC3)ccc2s1
Ki: < 20 nM
--
STRUCTURE_NOTATION: CCc1nc2cc(OCCCCN3CCC(c4cccc(Cl)c4Cl)CC3)ccc2s1
Ki: 71 nM
--
STRUCTURE_NOTATION: Cc1nc2cc(OCCCCN3CCN(c4cccc(Cl)c4Cl)CC3)ccc2s1
Ki: 38 nM

====

Target: D4R (Homo sapiens)
Sequence (P21917 1-419): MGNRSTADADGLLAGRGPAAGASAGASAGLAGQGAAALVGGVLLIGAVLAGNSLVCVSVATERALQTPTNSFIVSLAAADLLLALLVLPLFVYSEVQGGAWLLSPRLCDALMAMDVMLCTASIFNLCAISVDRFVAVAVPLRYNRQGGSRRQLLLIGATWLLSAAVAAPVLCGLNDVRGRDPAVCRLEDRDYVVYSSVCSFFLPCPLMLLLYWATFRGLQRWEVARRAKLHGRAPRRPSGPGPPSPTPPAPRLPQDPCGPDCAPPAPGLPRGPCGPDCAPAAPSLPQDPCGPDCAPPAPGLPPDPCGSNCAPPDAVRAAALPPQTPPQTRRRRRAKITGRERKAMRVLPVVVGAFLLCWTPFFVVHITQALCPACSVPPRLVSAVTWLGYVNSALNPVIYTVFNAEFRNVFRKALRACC
Assay: Radioligand binding, D4R
pKi: −log10 of the molar value.

STRUCTURE_NOTATION: CNc1nc2cc(OCCCCN3CCC(c4cccc(Cl)c4Cl)CC3)ccc2s1
pKi: 6.37
--
STRUCTURE_NOTATION: Cc1nc2cc(OCCCCN3CCN(c4cccc(Cl)c4Cl)CC3)ccc2s1
pKi: 7.09
--
STRUCTURE_NOTATION: CC(C)c1nc2cc(OCCCCN3CCN(c4cccc5c4OCCO5)CC3)ccc2s1
pKi: 7.11
--
STRUCTURE_NOTATION: CCc1nc2cc(OCCCCN3CCC(c4cccc(Cl)c4Cl)CC3)ccc2s1
pKi: 5.74
--
STRUCTURE_NOTATION: Cc1ccc2cccc(N3CCN(CCCCOc4ccc5sc(C(C)C)nc5c4)CC3)c2n1
pKi: 5.15
